These data points were gathered from patent US20220324865A1.

Catalogue of compounds with associated pIC50
# Experimental target: human EP3 receptor (Homo sapiens, UniProt P43115)
# Sequence (P43115 1-390): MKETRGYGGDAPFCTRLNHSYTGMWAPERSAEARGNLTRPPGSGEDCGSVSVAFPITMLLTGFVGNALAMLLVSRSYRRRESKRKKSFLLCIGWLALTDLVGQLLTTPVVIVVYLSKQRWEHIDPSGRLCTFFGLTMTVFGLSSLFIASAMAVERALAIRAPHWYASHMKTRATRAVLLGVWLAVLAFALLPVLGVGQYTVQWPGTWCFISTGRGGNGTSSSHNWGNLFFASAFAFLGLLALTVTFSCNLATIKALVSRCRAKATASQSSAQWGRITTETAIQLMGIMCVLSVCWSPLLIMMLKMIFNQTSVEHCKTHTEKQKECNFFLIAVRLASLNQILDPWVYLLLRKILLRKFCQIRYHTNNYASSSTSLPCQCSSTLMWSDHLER
# Assay procedure: Cellular in vitro assay for determining EP3 receptor activity (human EP3 cell line, sulprostone-stimulated calcium luminescence)
# Test parameters: CHO cells expressing human EP3 and mitochondrial Clytin; antagonist mode, sulprostone at EC50; read-out: EP3 CHO mtCLY ANTAG IC50
// field semantics: pIC50 = negative decimal log of concentration (mol/L)

Compound | Experimental target | pIC50
Cc1cccc2ncc(-c3cn4nc(C(=O)NC5(c6ccc(F)cc6)CN(C)C5)c(C(C)C)c4c(=O)[nH]3)cc12 | human EP3 receptor (Homo sapiens, UniProt P43115) | 8.24
O=C(N[C@H](CO)c1ccccc1)c1nn2cc(-c3ccc4ccccc4c3)[nH]c(=O)c2c1C(F)(F)F | human EP3 receptor (Homo sapiens, UniProt P43115) | 8.93
CC(NC(=O)c1cc2c(=O)[nH]c(-c3ccc4cccnc4c3)cn2n1)c1ccc(F)cc1 (stereo not shown) | human EP3 receptor (Homo sapiens, UniProt P43115) | 8.58
Cc1ccc(-c2cn3nc(C(=O)NCC(O)C(F)(F)F)c(C4CC4)c3c(=O)[nH]2)cc1C (racemic) [6-435] | human EP3 receptor (Homo sapiens, UniProt P43115) | 9.59
Cc1ccc(-c2cn3nc(C(=O)N[C@@H](c4ccc(F)cc4)C(F)(F)CO)cc3c(=O)[nH]2)cc1F | human EP3 receptor (Homo sapiens, UniProt P43115) | 8.22

Tell me the measured pIC50 of Cc1cccc2ncc(-c3cn4nc(C(=O)NC(c5ccccc5)C(F)F)c(C(C)C)c4c(=O)[nH]3)cc12 (stereo not shown) , please. 8.52

Follow-up item: "CCn1cc(CNC(=O)c2nn3cc(-c4ccc5ccccc5c4)[nH]c(=O)c3c2C#N)c(C)n1" 8.59
